# Assayed Target: human 5-HT1A receptors (Homo sapiens)
# Construct: expressed in transfected cells; host or cells: HeLa cells (HA7), used as cell homogenate
# Sequence (P08908 whole entry): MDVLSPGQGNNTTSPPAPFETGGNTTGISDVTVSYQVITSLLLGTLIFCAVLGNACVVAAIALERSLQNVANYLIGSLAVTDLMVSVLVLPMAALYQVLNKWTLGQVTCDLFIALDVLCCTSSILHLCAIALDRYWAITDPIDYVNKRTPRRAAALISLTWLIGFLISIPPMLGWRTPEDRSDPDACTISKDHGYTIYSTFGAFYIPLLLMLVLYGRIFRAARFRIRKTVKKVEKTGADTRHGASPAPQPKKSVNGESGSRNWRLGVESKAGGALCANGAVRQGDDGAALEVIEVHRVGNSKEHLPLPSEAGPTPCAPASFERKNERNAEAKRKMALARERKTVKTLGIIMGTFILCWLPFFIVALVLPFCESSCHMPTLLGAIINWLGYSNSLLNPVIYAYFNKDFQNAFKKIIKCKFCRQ
# Assay Procedure: Inhibition of 3H-5-CT binding to human 5-HT1A receptors
Where a name gives a salt, the structure may show the parent alone.
For each record, write down the corresponding IC50.
Numbers only, in nM.

Illustrative cases are given below, each with its answer.
1. CC1(C)Cc2cccc(C3=CCN(CCc4c[nH]c5cc(Cl)ccc45)CC3)c2O1	2.8
2. Cc1[nH]c2ccccc2c1CCN1CCN(c2cccc3c2OCCO3)CC1.O=C(O)C(=O)O [Compound 1c, oxalate]	2.5

Lab note: each compound below needs its IC50 filled in.
1. Brc1ccc2[nH]cc(CCN3CCN(c4cccc5c4OCCO5)CC3)c2c1.O=C(O)C(=O)O [Compound 1b, oxalate]
2. Clc1cccc2[nH]cc(CCN3CCN(c4cccc5c4OCCO5)CC3)c12.O=C(O)C(=O)O [Compound 1e, oxalate]
3. Clc1ccc2[nH]cc(CCN3CCN(c4cccc5c4OCCO5)CC3)c2c1 [Compound 1a, Oxalate]
4. Fc1ccc2[nH]cc(CCN3CCN(c4cccc5c4OCCO5)CC3)c2c1.O=C(O)C(=O)O [Compound 1h, oxalate]
5. CC1(C)CCc2cc(Cl)cc(N3CCN(CCc4c[nH]c5cc(Cl)ccc45)CC3)c2O1.O=C(O)/C=C/C(=O)O [Compound 3d, fumarate]

Completion:
7.2
11
17
4.6
21

====

Counter-ions that a name gives are not always drawn.
For each record, write down the corresponding melting point.

Illustrative cases are given below, each with its answer.
1. Clc1ccc2ccn(CCN3CCN(c4cccc5c4OCCO5)CC3)c2c1.O=C(O)C(=O)O	234 to 235 °C
2. Clc1ccc2c(CCN3CCN(c4cccc5c4OCC5)CC3)c[nH]c2c1.O=C(O)C(=O)O [Compound 1o]	205 to 207 °C

Lab note: each molecule below needs its melting point filled in.
1. Clc1cc2c(c(N3CCN(CCc4c[nH]c5cc(Cl)ccc45)CC3)c1)OCCO2.O=C(O)C(=O)O [Compound 1l]
2. Clc1ccc2c(ccn2CCN2CCN(c3cccc4c3OCCO4)CC2)c1.O=C(O)C(=O)O
3. Clc1ccc2[nH]cc(CCN3CCN(c4cccc5c4OCC5)CC3)c2c1.O=C(O)C(=O)O [Compound 1n]
4. Cc1[nH]c2ccccc2c1CCN1CCN(c2cccc3c2OCCO3)CC1.O=C(O)C(=O)O [Compound 1c]
5. CC1(C)Cc2cccc(C3CCN(CCc4c[nH]c5cc(Cl)ccc45)CC3)c2O1 (as salt: oxalate) [Compound 1f]

Completion:
["237 to 238 °C", "234 to 235 °C", "134 to 138 °C", "205 to 208 °C", "190 to 193 °C"]

Lab note: each molecule below needs its melting point filled in.
1. CC1(C)CCc2cc(Cl)cc(N3CCN(CCc4c[nH]c5cc(Cl)ccc45)CC3)c2O1.O=C(O)/C=C/C(=O)O [Compound 3d]
2. Clc1ccc2c(CCN3CC=C(c4cccc5c4OCCO5)CC3)c[nH]c2c1.O=C(O)C(=O)O [Compound 1v]
3. O=C(O)C(=O)O.c1cc2c(c(N3CCN(CCn4ccc5ccccc54)CC3)c1)OCCO2
4. Clc1ccc2[nH]cc(CCN3CCN(c4cccc5c4SCC=C5)CC3)c2c1
5. Brc1ccc2[nH]cc(CCN3CCN(c4cccc5c4SCC=C5)CC3)c2c1

Completion:
224 to 225 °C
240 to 247 °C
225 to 229 °C
152 to 153 °C
166 to 167 °C

Values from patent US6727263B2
